# method summary: water solubility
# Type: physicochemical
# stated conditions: hydrochloride, white powder
endpoint label: solubility

>>> df
                               query_smiles  result_value
0  CCCN1CCC[C@@H](c2cccc(S(C)(=O)=O)c2)C1.Cl  > 2000 mg/mL
